The origin of these recorded values is patent US20210254056A1.

System: hepatocytes
methodNotes: RNA-seq of hepatocytes treated with Phase III failure compounds
RNA-seq results, CYP39A1 expression strictly under -0.2 means 1; at -0.2 or over means -1.

compound	testedOn	group
Cn1cnc2c(F)c(Nc3ccc(Br)cc3Cl)c(C(=O)NOCCO)cc21 [Selumetinib]	hepatocytes	1
COc1cc2nccc(Oc3ccc(NC(=O)Nc4cc(C)on4)c(Cl)c3)c2cc1OC [Tivozanib]	hepatocytes	-1
COc1cc2c(Oc3ccc4[nH]c(C)cc4c3F)ncnc2cc1OCCCN1CCCC1 [Cediranib]	hepatocytes	1
CCN(CC)CCN(Cc1ccc(-c2ccc(C(F)(F)F)cc2)cc1)C(=O)Cn1c(SCc2ccc(F)cc2)nc(=O)c2c1CCC2 [Darapladib]	hepatocytes	1
C=CCNC1=C2C[C@@H](C)C[C@H](OC)[C@H](O)[C@@H](C)/C=C(\C)[C@H](OC(N)=O)[C@@H](OC)/C=C\C=C(/C)C(=O)NC(=CC1=O)C2=O [17-MG (Tanespimycin), Tanespimycin]	hepatocytes	-1
CCOC(=O)N1c2ccc(C(F)(F)F)cc2[C@@H](N(Cc2cc(C(F)(F)F)cc(C(F)(F)F)c2)C(=O)OC)C[C@H]1CC [Torcetrapib]	hepatocytes	-1
Cn1cc(C2=C(c3cn(C4CCN(Cc5ccccn5)CC4)c4ccccc34)C(=O)NC2=O)c2ccccc21 [Enzastaurin]	hepatocytes	1

----------
Tested on: hepatocytes
methodNotes: RNA-seq of hepatocytes treated with Phase III failure compounds
conditionLabel: gene GALK1; hepatocytes
Reported values of RNA-seq results: GALK1 expression for individual entries
readout: RNA-seq results: GALK1 expression

compound	testedOn	readout	endpointValue
NC(=O)c1ccc(I)c([N+](=O)[O-])c1	hepatocytes	RNA-seq results: GALK1 expression	−0.03
COc1cc(Nc2ncc(F)c(Nc3ccc4c(n3)N(COP(=O)(O)O)C(=O)C(C)(C)O4)n2)cc(OC)c1OC	hepatocytes	RNA-seq results: GALK1 expression	0.19
Cn1cc(C2=C(c3cn(C4CCN(Cc5ccccn5)CC4)c4ccccc34)C(=O)NC2=O)c2ccccc21	hepatocytes	RNA-seq results: GALK1 expression	−0.94
CCOC(=O)N1c2ccc(C(F)(F)F)cc2[C@@H](N(Cc2cc(C(F)(F)F)cc(C(F)(F)F)c2)C(=O)OC)C[C@H]1CC	hepatocytes	RNA-seq results: GALK1 expression	0.4
C=CCNC1=C2C[C@@H](C)C[C@H](OC)[C@H](O)[C@@H](C)/C=C(\C)[C@H](OC(N)=O)[C@@H](OC)/C=C\C=C(/C)C(=O)NC(=CC1=O)C2=O	hepatocytes	RNA-seq results: GALK1 expression	−0.7
CCC(CC)[C@H](NC(C)=O)[C@@H]1[C@H](O)[C@@H](C(=O)O)C[C@H]1NC(=N)N.O.O.O [peramivir (trihydrate), peramivir]	hepatocytes	RNA-seq results: GALK1 expression	0.34
Cn1cnc2c(F)c(Nc3ccc(Br)cc3Cl)c(C(=O)NOCCO)cc21	hepatocytes	RNA-seq results: GALK1 expression	0.05
COc1cc2c(Oc3ccc4[nH]c(C)cc4c3F)ncnc2cc1OCCCN1CCCC1	hepatocytes	RNA-seq results: GALK1 expression	−0.27
CCN(CC)CCN(Cc1ccc(-c2ccc(C(F)(F)F)cc2)cc1)C(=O)Cn1c(SCc2ccc(F)cc2)nc(=O)c2c1CCC2	hepatocytes	RNA-seq results: GALK1 expression	−0.61
O=P(O)(NCCCl)NCCCl [Palifosfamide]	hepatocytes	RNA-seq results: GALK1 expression	−0.37
COc1cc2nccc(Oc3ccc(NC(=O)Nc4cc(C)on4)c(Cl)c3)c2cc1OC	hepatocytes	RNA-seq results: GALK1 expression	−0.45

----------
System: hepatocytes
methodNotes: RNA-seq of hepatocytes treated with Phase III failure compounds
conditionLabel: gene COG6; hepatocytes
Classify by measured RNA-seq results: COG6 expression: rule met if it is equal to or exceeds 0.08, rule not met if it is smaller.

molecule	group
Cn1cc(C2=C(c3cn(C4CCN(Cc5ccccn5)CC4)c4ccccc34)C(=O)NC2=O)c2ccccc21	rule met
NC(=O)c1ccc(I)c([N+](=O)[O-])c1	rule not met
Cn1cnc2c(F)c(Nc3ccc(Br)cc3Cl)c(C(=O)NOCCO)cc21	rule met
CCC(CC)[C@H](NC(C)=O)[C@@H]1[C@H](O)[C@@H](C(=O)O)C[C@H]1NC(=N)N.O.O.O [peramivir (trihydrate), peramivir]	rule not met
COc1cc2nccc(Oc3ccc(NC(=O)Nc4cc(C)on4)c(Cl)c3)c2cc1OC	rule not met
COc1cc(Nc2ncc(F)c(Nc3ccc4c(n3)N(COP(=O)(O)O)C(=O)C(C)(C)O4)n2)cc(OC)c1OC	rule met
CCOC(=O)N1c2ccc(C(F)(F)F)cc2[C@@H](N(Cc2cc(C(F)(F)F)cc(C(F)(F)F)c2)C(=O)OC)C[C@H]1CC	rule met
C=CCNC1=C2C[C@@H](C)C[C@H](OC)[C@H](O)[C@@H](C)/C=C(\C)[C@H](OC(N)=O)[C@@H](OC)/C=C\C=C(/C)C(=O)NC(=CC1=O)C2=O	rule not met
COc1cc2c(Oc3ccc4[nH]c(C)cc4c3F)ncnc2cc1OCCCN1CCCC1	rule not met
CCN(CC)CCN(Cc1ccc(-c2ccc(C(F)(F)F)cc2)cc1)C(=O)Cn1c(SCc2ccc(F)cc2)nc(=O)c2c1CCC2	rule not met

----------
System: hepatocytes
methodNotes: RNA-seq of hepatocytes treated with Phase III failure compounds
conditionLabel: gene AMT; hepatocytes
Protocol: RNA-seq was performed to determine the effects of the compounds on hepatocytes. Significance was determined by the criteria of FPKM≥0.5, a log 2(fold-change)≥1, and a […].
Reported values of RNA-seq results: AMT expression for individual entries
readout: RNA-seq results: AMT expression

molecule	endpointValue
C=CCNC1=C2C[C@@H](C)C[C@H](OC)[C@H](O)[C@@H](C)/C=C(\C)[C@H](OC(N)=O)[C@@H](OC)/C=C\C=C(/C)C(=O)NC(=CC1=O)C2=O	0.31
COc1cc(Nc2ncc(F)c(Nc3ccc4c(n3)N(COP(=O)(O)O)C(=O)C(C)(C)O4)n2)cc(OC)c1OC	−0.28
CCOC(=O)N1c2ccc(C(F)(F)F)cc2[C@@H](N(Cc2cc(C(F)(F)F)cc(C(F)(F)F)c2)C(=O)OC)C[C@H]1CC	−0.11
CCC(CC)[C@H](NC(C)=O)[C@@H]1[C@H](O)[C@@H](C(=O)O)C[C@H]1NC(=N)N.O.O.O [peramivir (trihydrate), peramivir]	0.24
NC(=O)c1ccc(I)c([N+](=O)[O-])c1	−0.04
CCN(CC)CCN(Cc1ccc(-c2ccc(C(F)(F)F)cc2)cc1)C(=O)Cn1c(SCc2ccc(F)cc2)nc(=O)c2c1CCC2	−0.35
COc1cc2nccc(Oc3ccc(NC(=O)Nc4cc(C)on4)c(Cl)c3)c2cc1OC	0.50
Cn1cnc2c(F)c(Nc3ccc(Br)cc3Cl)c(C(=O)NOCCO)cc21	0.29
Cn1cc(C2=C(c3cn(C4CCN(Cc5ccccn5)CC4)c4ccccc34)C(=O)NC2=O)c2ccccc21	−0.42
COc1cc2c(Oc3ccc4[nH]c(C)cc4c3F)ncnc2cc1OCCCN1CCCC1	−0.23
O=P(O)(NCCCl)NCCCl [Palifosfamide]	0.13

----------
Tested on: hepatocytes
methodNotes: RNA-seq of hepatocytes stimulated with the compounds of Table 68
conditionLabel: hepatocytes stimulated with the compound; RNA-seq; significance: FPKM≥1, q-value≤0.05, log 2 fold change≥1.5
Reported values of # of genes having significantly altered expression for individual entries
readout: # of genes having significantly altered expression

compound	endpointValue
CNC(=O)c1cc(Oc2ccc(NC(=O)Nc3ccc(Cl)c(C(F)(F)F)c3)c(F)c2)ccn1 [Regorafenib]	10
C=C1/C(=C\C=C2/CCC[C@]3(C)[C@@H]([C@H](C)CCCC(C)(C)O)CC[C@@H]23)C[C@@H](O)C[C@@H]1O [Calcitrol]	1950
C[C@@H]1CC(=O)c2c(ccc3c2C(=O)c2cccc(O)c2C3=O)C1 [STA-21]	6
Cc1[nH]c(/C=C2\C(=O)Nc3ccc(S(=O)(=O)Cc4c(Cl)cccc4Cl)cc32)c(C)c1C(=O)N1CCC[C@@H]1CN1CCCC1 [PHA-665752]	1767
C=C(c1ccc(C(=O)O)cc1)c1cc2c(cc1C)C(C)(C)CCC2(C)C [Bexarotene]	267
Cc1c(C(=O)NN2CCCCC2)nn(-c2ccc(Cl)cc2Cl)c1-c1ccc(Cl)cc1 [Rimonabant]	1392
S=C(NCc1ccc2c(c1)OCO2)N1CCN(c2ncnc3c2oc2ccccc23)CC1 [Amuvatinib]	2835
CCNC1(C(N)=O)CCN(c2ncnc3c2nc(-c2ccccc2Cl)n3-c2ccc(Cl)cc2)CC1 [Otenabant]	36

----------
Test system: hepatocytes
methodNotes: RNA-seq of hepatocytes treated with Phase III failure compounds
conditionLabel: gene SLC25A13; hepatocytes
Classify by measured RNA-seq results: SLC25A13: class 1 if it is equal to or exceeds 0.1, class 0 if it is smaller.

compound	group
Cn1cnc2c(F)c(Nc3ccc(Br)cc3Cl)c(C(=O)NOCCO)cc21	class 0
CCOC(=O)N1c2ccc(C(F)(F)F)cc2[C@@H](N(Cc2cc(C(F)(F)F)cc(C(F)(F)F)c2)C(=O)OC)C[C@H]1CC	class 1
C=CCNC1=C2C[C@@H](C)C[C@H](OC)[C@H](O)[C@@H](C)/C=C(\C)[C@H](OC(N)=O)[C@@H](OC)/C=C\C=C(/C)C(=O)NC(=CC1=O)C2=O	class 1
COc1cc2nccc(Oc3ccc(NC(=O)Nc4cc(C)on4)c(Cl)c3)c2cc1OC	class 0
CCC(CC)[C@H](NC(C)=O)[C@@H]1[C@H](O)[C@@H](C(=O)O)C[C@H]1NC(=N)N.O.O.O [peramivir (trihydrate), peramivir]	class 0
NC(=O)c1ccc(I)c([N+](=O)[O-])c1	class 0
O=P(O)(NCCCl)NCCCl [Palifosfamide]	class 0
COc1cc2c(Oc3ccc4[nH]c(C)cc4c3F)ncnc2cc1OCCCN1CCCC1	class 0
COc1cc(Nc2ncc(F)c(Nc3ccc4c(n3)N(COP(=O)(O)O)C(=O)C(C)(C)O4)n2)cc(OC)c1OC	class 1
Cn1cc(C2=C(c3cn(C4CCN(Cc5ccccn5)CC4)c4ccccc34)C(=O)NC2=O)c2ccccc21	class 1
CCN(CC)CCN(Cc1ccc(-c2ccc(C(F)(F)F)cc2)cc1)C(=O)Cn1c(SCc2ccc(F)cc2)nc(=O)c2c1CCC2	class 1
